Attribution: patent US9499553B2

Below, each entry is listed alongside its reported Rate of uptake inhibition (%) (1 μM).
System: rat small-intestinal brush border membrane vesicles
methodSummary: Inhibitory effect on 33PO4 uptake into rat small-intestinal brush border membrane vesicles (rapid filtration method)
Format: biochemical
appliedConditions: 1 μM test compound; 33PO4 uptake into rat small-intestinal BBMVs, reacted for 60 seconds
Where a name gives a salt, the structure may show the parent alone.
I only need the number, in %, no unit after it.

Examples with their reported Rate of uptake inhibition (%) (1 μM) follow.
COc1cccc(-c2cc(C(F)(F)F)ccc2NC(=O)C2=C(O)[C@@]3(C)CCCN3N(Cc3cccc(F)c3F)C2=O)c1OC	94
CN1N(Cc2ccc(OCC[N+]34CCN(CC3)CC4)c(F)c2F)C(=O)C(C(=O)Nc2ccc(C(F)(F)F)cc2-c2cc(C(F)(F)F)ncn2)=C(O)C12CCCC2 [Example 415, formate]	21
COc1nc(C#N)ncc1-c1cc(C(F)(F)F)ccc1NC(=O)C1=C(O)[C@@]2(C)CCCN2N(Cc2cccc(F)c2F)C1=O	88
C[C@]12CCCN1N(Cc1cccc(F)c1Br)C(=O)C(C(=O)Nc1ccc(Cl)cc1F)=C2O	90
C[C@]12CCCN1N(Cc1cccc(F)c1Br)C(=O)C(C(=O)Nc1ccc(Br)c(C#N)c1)=C2O	87

Q. So what does the record say about Rate of uptake inhibition (%) (1 μM) for COC(=O)c1cc(-c2cc(C(F)(F)F)ccc2NC(=O)C2=C(O)[C@@]3(C)CCCN3N(Cc3cccc(F)c3F)C2=O)nc(Cl)n1 ?
A. 53

Q. Using the record for Cc1cc(S(=O)(=O)N(C)C)ccc1-c1cc(C(F)(F)F)ccc1NC(=O)C1=C(O)[C@@]2(C)CCCN2N(Cc2cccc(F)c2F)C1=O , report its Rate of uptake inhibition (%) (1 μM).
A. 79

Q. Please give the measured Rate of uptake inhibition (%) (1 μM) for this molecule: C[C@]12CCCN1N(Cc1ccc(OCCN3CCOCC3)c(F)c1F)C(=O)C(C(=O)Nc1ccc(C(F)(F)F)cc1-c1ncnc(C#N)c1Cl)=C2O
A. 72

Q. Can you look up the measured Rate of uptake inhibition (%) (1 μM) of C[C@]12CCCN1N(Cc1cccc(F)c1F)C(=O)C(C(=O)Nc1ccc(Br)c(Cl)c1)=C2O for me?
A. 76

Q. For C[C@]12CCCN1N(Cc1cccc(F)c1F)C(=O)C(C(=O)Nc1ccc(C(F)(F)F)cc1-c1ccc(C#N)nc1)=C2O , what is its reported Rate of uptake inhibition (%) (1 μM)?
A. 73

Q. # query: Rate of uptake inhibition (%) (1 μM) of entry C[C@]12CCCN1N(Cc1cccc(F)c1F)C(=O)C(C(=O)Nc1ccc(C(F)(F)F)cc1-c1cccc(F)c1C#N)=C2O
A. 87
